- System: MOLT-4 leukemia
- Method: NCI-60 one-dose screen, 48 h (100 = growth as untreated, 0 = no growth, -100 = all killed)
- Cond: 10 µM unless noted
This is part of a sample that, as a whole, favours compounds with a hit. Of some 83,000 tested, about 20% had one in any assay.
Kindly state growth for each of the entries shown.
One number for each entry, in %.

[
  {
    "Compound": "CCCCCCCCCCCCCCCCCC1OCC(COC(=O)O[C@]2(CC)C(=O)OCc3c2cc2n(c3=O)Cc3cc4ccccc4nc3-2)O1 (stereo partly drawn)",
    "Result Units": "%",
    "growth": 43.3
  },
  {
    "Compound": "COc1ccc(C(=O)C[C@]2(O)C(=O)Nc3c(Cl)ccc(Cl)c32)cc1",
    "Result Units": "%",
    "growth": 34.1
  },
  {
    "Compound": "O=C(CCN1C(=O)/C(=C/c2ccc(O)cc2)SC1=S)Nc1ccc(Cl)cc1",
    "Result Units": "%",
    "growth": 84.7
  },
  {
    "Compound": "COc1ccc(NC(=O)n2nc(/C=C\\c3ccc(O)c(OC)c3)cc2/C=C\\c2ccc(O)c(OC)c2)cc1",
    "Result Units": "%",
    "growth": 12.2
  },
  {
    "Compound": "CCCCCCCCCCCCCCCCCCOc1ccc(CC(=O)OCC[N+]2(C)CCCCC2)cc1",
    "Result Units": "%",
    "growth": 98.6
  },
  {
    "Compound": "Cc1cc(-c2cc(C)c(N)cc2C)c(C)cc1N",
    "Result Units": "%",
    "growth": 100
  }
]

Record growth per entry; entries follow.
1. NCCCNc1nc2ccccc2c2c(=O)c3cccc(F)c3sc12
2. COc1ccc(NC2=C(Br)C(=O)C(C)=C(C)C2=O)cc1
3. COc1ccc(-c2cc(-c3ccc(Cl)cc3)c(C#N)c(=O)n2CCCCCC(=O)Nc2ccccc2N)cc1
4. COc1ccc(/C=C(\C#N)n2nnc3c(F)cccc32)cc1
5. COc1cc(C(=O)/C=C/c2c(Cl)nc3sccn23)cc(OC)c1OC
6. COc1cc(CCC[P+](c2ccccc2)(c2ccccc2)c2ccccc2)c(OC)c2c1OCO2

[-14.7, -9.34, 35.2, 14.4, 74, 44.4]

Record growth per entry; entries follow.
1. CNC(=O)c1[nH]cc(-c2ccccc2)c1-c1cc(OC)c2c(c1OC)OCO2
2. CN(C)CCNc1nc2ccccc2c2c(=O)c3cc(F)ccc3sc12
3. CC(=O)O.CN1[CH-]N(Cc2ccc(C#N)cc2)c2ccccc21.[Ag+]
4. COc1ccc2nc(NC(=O)c3cccnc3Nc3ccc(S(N)(=O)=O)cc3)sc2c1
5. c1cc2nc(-c3cn[nH]c3)c3c(c2cc1-c1cn[nH]c1)C1CCC3C1 (stereo not drawn)

101
-3.39
90.1
63.3
63

Record growth per entry; entries follow.
1. O=c1n(Cc2ccc3ccccc3c2)ccn1Cc1ccc2ccccc2c1
2. Cc1ccc(C(C)C)cc1C(=O)C[n+]1ccccc1
3. Cn1cc(-c2cc3ncnc(Nc4ccc(CC(=O)Nc5cc(C(C)(C)C)nn5C)cc4)c3s2)cn1

[91.8, 88.4, 16.7]

Record growth per entry; entries follow.
1. COc1ccc(-c2nc(NCCO)[nH]c(=O)c2C#N)cc1
2. Cc1ccc(NC2=C(Cl)C(=O)c3nc(C)ccc3C2=O)cc1
3. O=CN1N=C(c2ccc(Nc3ccnc4cc(Cl)ccc34)cc2)CC1c1ccccc1 (stereo not drawn)

98.8
-13.5
13.8

###

Kindly state growth for each of the entries shown.
- Test system: HCC-2998 colon
- Method: NCI-60 one-dose screen, 48 h (100 = growth as untreated, 0 = no growth, -100 = all killed)
- Cond: 10 µM unless noted
This is part of a sample that, as a whole, favours compounds with a hit. Of some 83,000 tested, about 20% had one in any assay.
Answers are plain numbers, in %.

Study these solved cases before continuing.
[
  {
    "Molecule": "Cc1cc(=O)[nH]c(=O)n1Cc1cn(-c2c3ccccc3nc3ccccc23)nn1",
    "Test Target": "HCC-2998 colon",
    "growth / %": 62.5
  },
  {
    "Molecule": "COc1cc2oc(-c3ccc(O)cc3)cc(=O)c2c(O)c1-c1c(OC)cc(O)c2c(=O)cc(-c3ccc(O)cc3)oc12",
    "Test Target": "HCC-2998 colon",
    "growth / %": 72.5
  },
  {
    "Molecule": "CN(C(=O)NCc1cccc(F)c1Cl)[C@H](COC(=O)Nc1cc2ccccc2cn1)CC(O)CO (some centres undefined)",
    "Test Target": "HCC-2998 colon",
    "growth / %": 110
  },
  {
    "Molecule": "CN1CCN(c2ccc(-c3ccc4ncc(C#N)c(Nc5ccc(F)c(Cl)c5)c4c3)cc2)CC1",
    "Test Target": "HCC-2998 colon",
    "growth / %": 48.6
  },
  {
    "Molecule": "COc1ccc2cc(C(C)C(=O)Nc3ccc(-c4n[nH]c(=S)n4C4CCCCC4)cc3)ccc2c1 (centres undefined)",
    "Test Target": "HCC-2998 colon",
    "growth / %": 70.5
  },
  {
    "Molecule": "O=C1c2ccccc2NC(n2sc3ccccc3c2=O)N1c1ccccc1 (centres undefined)",
    "Test Target": "HCC-2998 colon",
    "growth / %": 103
  }
]

Record growth per entry; entries follow.
1. c1cc(-c2nnc(SSc3ncnc4nc[nH]c34)o2)ccn1
2. COc1ccc(C2CC(c3ccc(Nc4ccnc5cc(Cl)ccc45)cc3)=NN2C=O)cc1 (centres undefined)
3. CC1=C(C)C(=O)C(Nc2cccc(C(=O)OC(C)(C)C)c2)=C(Br)C1=O
4. O=c1ccc(N=Nc2ccccc2)ccc1Cl
5. C=C1C(=O)O[C@H]2[C@H]1CC/C(COC(=O)NCCOCCOCC(=O)Nc1ccc(OC)c(C(N)=O)c1O)=C\CC[C@@]1(C)O[C@@H]21
6. COc1ccc(NC2=C(Br)C(=O)C(C)=C(C)C2=O)cc1
7. C[C@]12CC[C@@H]3c4cc(OC(F)F)c(OS(N)(=O)=O)cc4CC[C@H]3[C@@H]1CC[C@@H]2O
8. COC1=C(C)C(=O)c2c(c(CCCl)c3n2CCC3OC(C)=O)C1=O (centres undefined)

10.3
57.8
100
35
90.4
99.6
16.2
-48.1

Record growth per entry; entries follow.
1. COc1ccc(-c2[nH]c3ccc(OC)cc3c2/C=C(\C#N)S(=O)(=O)c2ccccc2)cc1
2. Cc1cc2[nH]c(=O)c3c4ncccc4cn3c2cc1C

1: -19.7; 2: 13.7

Record growth per entry; entries follow.
1. COc1ccc2[nH]c(-c3ccccc3)c(/C=C(\C#N)S(=O)(=O)c3ccccc3)c2c1
2. Cc1ncc(C(=O)Nc2ccc(CN3CCN(C)CC3)c(C(F)(F)F)c2)cc1C#Cc1ccc(N)nc1
3. c1ccc(Cc2nn3cc(-c4ccccc4)nc3s2)cc1
4. COc1cc2cc(Oc3ccc(NC(=O)Nc4cc(C(F)(F)F)cc(C(F)(F)F)c4)cc3)c(C)nc2cc1OCCN1CCOCC1
5. O=C1c2cccc3cccc(c23)C(=O)N1Nc1nc(NC2CCCCC2)nc(N2CCOCC2)n1
6. COc1cc2cc(Oc3ccc(NC(=O)Nc4ccc(F)c(C(F)(F)F)c4)cc3)c(C)nc2cc1OCCN1CCOCC1
7. CCCCn1c(=O)c(-c2cc(-c3ccc(Cl)cc3)nc(-c3ccc(Cl)cc3)c2)cc2ccc(Cl)cc21
8. COc1cc2cc(Oc3ccc(NC(=O)Nc4ccc(Cl)c(Cl)c4)cc3)c(C)nc2cc1OCCN1CCOCC1

68.4
25.5
103
38.6
111
44.9
103
116

###

- Tested on: MOLT-4 leukemia
- Method: NCI-60 one-dose screen, 48 h
- Cond: 10 µM unless noted
This is part of a sample that, as a whole, favours compounds with a hit. Of some 83,000 tested, about 20% had one in any assay. Active and inactive are the calls of the source. Rule for the calls: active = growth percent below 10; inactive = the rest.
Thanks in advance; please answer with one of these: active, inactive

Example entries and their recorded answers appear below.
[
  {
    "Compound": "O=C(CS(=O)c1oc(-c2cccs2)nc1S(=O)(=O)c1ccc(Br)cc1)c1ccccc1 (configuration not stated)",
    "Cat": "inactive"
  },
  {
    "Compound": "COc1cccc(-c2nc(-c3ccc(NC(=O)C(C)C)cc3)[nH]c2-c2ccnc(Br)c2)c1",
    "Cat": "inactive"
  }
]

Field: next compound
Which result was noted for this compound in the test: COc1ccc(CNC(=O)[C@H](O)[C@@H](N)Cc2ccccc2)cc1 inactive

###

- Test system: SF-295 CNS
- Method: NCI-60 one-dose screen, 48 h (100 = growth as untreated, 0 = no growth, -100 = all killed)
- Cond: 10 µM unless noted
About 83,000 compounds went through this panel and 20% of them were active in at least one assay; those are over-represented in the sample as a whole.
Attribute Measured: growth (%)
Give bare numbers, in %.

Study these solved cases before continuing.
[
  {
    "Compound": "CC(=O)OC[C@H]1OC(Sc2sc(C(=O)c3ccc(Cl)cc3)c(N)c2-c2nc3ccccc3s2)[C@H](OC(C)=O)[C@@H](OC(C)=O)[C@@H]1OC(C)=O (stereo partly specified)",
    "Test Target": "SF-295 CNS",
    "Attribute Measured": "growth",
    "Measured Number": 95.1
  },
  {
    "Compound": "OC(COc1ccccc1Cl)CN1CCN(c2cccc(Cl)c2)CC1 (stereo unspecified)",
    "Test Target": "SF-295 CNS",
    "Attribute Measured": "growth",
    "Measured Number": 105
  },
  {
    "Compound": "Clc1ccc(C(/C=C/c2sc(Cl)nc2Cl)=N/Nc2cc(Cl)cc(Cl)c2)cc1",
    "Test Target": "SF-295 CNS",
    "Attribute Measured": "growth",
    "Measured Number": 104
  },
  {
    "Compound": "O=C(Nc1nc2ccc(F)cc2s1)c1cccnc1Nc1ccc(Cl)cc1Cl",
    "Test Target": "SF-295 CNS",
    "Attribute Measured": "growth",
    "Measured Number": 4.3
  },
  {
    "Compound": "O=C1NC(=O)C(Cn2cnc3ccccc32)N1 (stereo unspecified)",
    "Test Target": "SF-295 CNS",
    "Attribute Measured": "growth",
    "Measured Number": 104
  }
]

If you can, please state the reported growth value of NC1=C(c2nn[nH]n2)C(c2ccccc2Cl)c2ccc3ccccc3c2O1 (stereo unspecified) . 88.9
